Target: human serum albumin (Homo sapiens, UniProt P02768)
Sequence (P02768 25-609): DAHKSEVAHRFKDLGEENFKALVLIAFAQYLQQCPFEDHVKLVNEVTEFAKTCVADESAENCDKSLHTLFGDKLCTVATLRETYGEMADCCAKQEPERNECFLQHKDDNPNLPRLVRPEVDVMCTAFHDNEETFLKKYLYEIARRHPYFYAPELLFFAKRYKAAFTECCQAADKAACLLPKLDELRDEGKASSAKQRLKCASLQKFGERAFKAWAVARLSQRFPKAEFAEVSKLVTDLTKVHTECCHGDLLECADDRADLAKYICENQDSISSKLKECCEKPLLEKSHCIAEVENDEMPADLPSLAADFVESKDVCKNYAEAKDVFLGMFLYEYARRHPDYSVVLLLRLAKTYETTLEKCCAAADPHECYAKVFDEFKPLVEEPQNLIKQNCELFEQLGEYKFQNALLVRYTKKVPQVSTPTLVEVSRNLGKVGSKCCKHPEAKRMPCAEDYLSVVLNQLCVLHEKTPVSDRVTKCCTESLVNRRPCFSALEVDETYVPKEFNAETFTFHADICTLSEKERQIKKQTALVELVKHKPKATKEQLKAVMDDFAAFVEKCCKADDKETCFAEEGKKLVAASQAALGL
Assay: protein binding by reverse-phase HPLC on human serum albumin column
Assay type: in vitro ADME
Parameter: fraction unbound
API note: the answer field is a bare number with no unit suffix.

# return recorded fraction unbound for input Cc1ccc(C(CC(=O)c2ccc(Oc3ccccc3)c(O)c2)C(N)=O)cc1 (stereo not shown) [Compound 10b]
0.095

* * *

MIC values recorded for M. tuberculosis H37Rv
Lab book: enter the figure in µg/mL, no units written.

// below: answered compounds
compound="COc1ccc(C(CC(=O)c2ccc(Oc3ccccc3)c(O)c2)C(N)=O)cc1 (stereo not shown) [Compound 10c]" parameter=MIC unit=µg/mL assay_value=25
compound="Oc1cc(Cl)ccc1Oc1ccc(Cl)cc1Cl [Triclosan, reference compound]" parameter=MIC unit=µg/mL assay_value=12.5
compound="NNC(=O)c1ccncc1 [Isoniazid, reference compound]" parameter=MIC unit=µg/mL assay_value=0.125
compound="NC(=O)C(CC(=O)c1ccc(Oc2ccccc2)c(O)c1)c1ccccc1 (stereo not shown) [Compound 10a]" parameter=MIC unit=µg/mL assay_value=20

Moving on to the next compound.
Tell me its MIC on M. tuberculosis H37Rv: Cc1ccc(C(CC(=O)c2ccc(Oc3ccccc3)c(O)c2)C(N)=O)cc1 (stereo not shown) [Compound 10b]
12.5

* * *

Assay: pKa by reverse-phase HPLC
Type: physicochemical
Parameter: pKa

# return recorded pKa for input Cc1ccc(C(CC(=O)c2ccc(Oc3ccccc3)c(O)c2)C(N)=O)cc1 (stereo not shown) [Compound 10b]
7.59

* * *

Assay: in vitro
Details: human
In this section we review reported CC50 values for a set of compounds.

compound="Cc1ccc(C(CC(=O)c2cccc(Oc3ccccc3)c2)C(N)=O)cc1 (stereo not drawn)" parameter=CC50 assay_value="> 300 µg/mL"
compound="Cc1ccc(C(CC(=O)c2ccc(Oc3ccccc3)c(O)c2)C(N)=O)cc1 (stereo not drawn) [Compound 10b]" parameter=CC50 assay_value="> 300 µg/mL"
compound="NC(=O)C(CC(=O)c1cccc(Oc2ccccc2)c1)c1ccccc1 (stereo not drawn)" parameter=CC50 assay_value="> 300 µg/mL"
compound="NC(=O)C(CC(=O)c1ccc(Oc2ccccc2)c(O)c1)c1ccccc1 (stereo not drawn) [Compound 10a]" parameter=CC50 assay_value="> 300 µg/mL"
compound="COc1ccc(C(CC(=O)c2ccc(Oc3ccccc3)c(O)c2)C(N)=O)cc1 (stereo not drawn) [Compound 10c]" parameter=CC50 assay_value="261 µg/mL"

Moving on to the next compound.
# return recorded CC50 for input Oc1cc(Cl)ccc1Oc1ccc(Cl)cc1Cl [Triclosan, reference compound]
> 300 µg/mL

Source: paper PMC4958353
